Ref: the SangsterLogP compilation

Recorded logD values for a group of molecules are listed next.
assay: method code SF, from Hansch, C. & Leo, A. (1987). Log P database [Dataset]. Pomona College Medicinal Chemistry Project.; details: pH 8.0
Reply with just the number.

# count of solved cases: 5
MOLECULE	ASSAY_METRIC	READOUT_VALUE
COc1cc(S(C)=O)ccc1-c1nc2ccccc2[nH]1 (stereo unspecified)	logD	1.17
CC(=O)OC(OC(C)=O)c1ccc([N+](=O)[O-])o1	logD	1.06
O=C(c1ccccc1)c1cccnc1	logD	1.88
Cn1c(N)cc2ccccc21	logD	1.72
OC(c1ccccc1)c1ccccn1 (stereo unspecified)	logD	1.52

Attention now shifts to the item below.
// logD lookup, key: `COc1ccc(-c2nc3ccccc3[nH]2)c(OC)c1` 2.59
